[
  {
    "COMPOUND": "O=C1NCCN1c1ccc(S(=O)(=O)Nc2ccc(Br)cc2)cc1",
    "melting point": "237 to 239 °C"
  },
  {
    "COMPOUND": "C[C@@H]1[C@H]2C(=O)N(Cc3ccccc3)C(=O)[C@H]2[C@@H](c2ccc(C(N)=NO)cc2)N1C (racemic)",
    "melting point": "194 to 196 °C"
  },
  {
    "COMPOUND": "Cc1cc(C)nc(NC(=O)Cc2ccsc2)c1",
    "melting point": "123 to 124 °C"
  },
  {
    "COMPOUND": "CC1(C)CCc2ccccc2C1c1cncnc1SCF (stereo not given)",
    "melting point": "126 to 128 °C"
  },
  {
    "COMPOUND": "CC1(C)Oc2ccc(C#N)cc2C(CC(=O)N2CCCCC2)C1O (stereo not given)",
    "melting point": "160 to 161 °C"
  }
]

* * *

[
  {
    "COMPOUND": "CNC(=O)c1cccc(NC(=O)Cc2cc(OC)cc(OC)c2)c1",
    "melting point": "146 to 147 °C"
  },
  {
    "COMPOUND": "CC1(Br)CCCNC1=O (stereo unspecified)",
    "melting point": "107 to 109 °C"
  },
  {
    "COMPOUND": "N#Cc1cc(-c2ccc(Cl)s2)[nH]c1Cl",
    "melting point": "> 200 °C"
  },
  {
    "COMPOUND": "O=C(NCCCCC1CCSS1)N1CCSC1 (stereo unspecified)",
    "melting point": "76 to 77 °C"
  },
  {
    "COMPOUND": "CC(C)Cn1c(C(=O)O)c(-c2ccc(Cl)cc2)c2cc(OCc3ccccc3)ccc2c1=O",
    "melting point": "200 to 201 °C"
  },
  {
    "COMPOUND": "Cc1c(C)c2c(c(C)c1N)CC(C)(CN1CCC(c3ccccc3)CC1)O2 (stereo unspecified)",
    "melting point": "112 to 113 °C"
  }
]

* * *

Items are presented alongside their recorded melting point.

[
  {
    "COMPOUND": "CC(C)(C)OC(=O)N1[C@@H](Cc2cccc(C3CCC3)c2)C(=O)O[C@H](c2ccccc2)[C@@H]1c1ccccc1",
    "melting point": "145 to 147 °C"
  },
  {
    "COMPOUND": "CC(C)[C@H](NC(=O)N(C)Cc1nccs1)C(=O)N[C@@H](Cc1ccccc1)C[C@H](O)[C@H](Cc1ccccc1)NC(=O)[C@@H](NC(=O)N(C)Cc1nccs1)C(C)C",
    "melting point": "195 to 197 °C"
  },
  {
    "COMPOUND": "CC1Cc2c(N=C=O)ccc(Cl)c2O1 (stereo not drawn)",
    "melting point": "169 to 171 °C"
  },
  {
    "COMPOUND": "CC(C)S(=O)(=O)c1cnc2c(c1)nc(CC(C)(C)C)n2CC1CCOCC1",
    "melting point": "201 °C"
  },
  {
    "COMPOUND": "COc1cc2ncnc(N3CCc4cc(F)ccc43)c2cc1OC",
    "melting point": "190 to 191 °C"
  },
  {
    "COMPOUND": "O=C1CNC(=O)C(CCCCNC(=O)OCc2ccccc2)N1 (stereo not drawn)",
    "melting point": "210 °C"
  },
  {
    "COMPOUND": "O=C(O)c1nc(SCc2ccccc2)ccc1SCc1ccccc1",
    "melting point": "129 °C"
  },
  {
    "COMPOUND": "COc1ccc(NC(=O)CCCCC(=O)Cc2ccccc2)cc1",
    "melting point": "131 to 132 °C"
  },
  {
    "COMPOUND": "CN1CCC(=C2c3cc(C#N)ccc3C=Cn3cccc32)CC1",
    "melting point": "156 to 159 °C"
  },
  {
    "COMPOUND": "O=S(=O)(c1cccs1)N(CC1CC1)c1cccc2cc(-c3ncc(CCl)s3)[nH]c12",
    "melting point": "135 °C"
  },
  {
    "COMPOUND": "CC1(C)CN(Cc2cc(F)ccc2F)c2cc(I)cnc2N1",
    "melting point": "168 to 169 °C"
  },
  {
    "COMPOUND": "COc1ccc(CCOc2nccc(-c3cccc(C(=O)O)c3)n2)cc1OC",
    "melting point": "171 to 172 °C"
  },
  {
    "COMPOUND": "Cc1cc(C2=NOC(c3cc(Cl)cc(Cl)c3)(C(F)(F)F)C2)ccc1C(=O)Nc1cncnc1 (stereo not drawn)",
    "melting point": "207 to 211 °C"
  },
  {
    "COMPOUND": "COc1cccc(-c2nc(N)ncc2-c2ccc(=O)[nH]n2)c1",
    "melting point": "134 °C"
  },
  {
    "COMPOUND": "CCCCCCCCS(=O)(=O)c1ccc(CC(COC(C)=O)(COC(C)=O)NC(C)=O)cc1",
    "melting point": "98 to 100 °C"
  },
  {
    "COMPOUND": "COc1ccc(C2=NN(C3CCCC3)C(=O)[C@H]3CC=CC[C@@H]23)cc1O (relative stereo)",
    "melting point": "142 to 144 °C"
  },
  {
    "COMPOUND": "COc1cc(NC(=O)Nc2ccc(Oc3ccncc3)cc2)cc(C(F)(F)F)c1",
    "melting point": "162 to 164 °C"
  },
  {
    "COMPOUND": "CCCc1nc2c(N)nc3ccccc3c2n1CC1(O)CCN(C)CC1",
    "melting point": "241 to 242 °C"
  },
  {
    "COMPOUND": "CC(=O)OC1CSC(Oc2cncc(-c3cc4ccccc4s3)c2)C(OC(C)=O)C1OC(C)=O (stereo not drawn)",
    "melting point": "168 °C"
  },
  {
    "COMPOUND": "CSC(=NC(C)=O)Nc1ccccc1[N+](=O)[O-]",
    "melting point": "120 to 122 °C"
  },
  {
    "COMPOUND": "Nc1ccc2c(c1)CC(N1CCN(CCN3CCOC3=O)CC1)c1ccccc1S2 (stereo not drawn)",
    "melting point": "193 to 196 °C"
  },
  {
    "COMPOUND": "CC(C)c1ccc2nc3ccc(C(=O)OCCCc4cccnc4)cc3c(=O)n2c1",
    "melting point": "111 to 112 °C"
  },
  {
    "COMPOUND": "CSc1ncc(N(C)C(=O)C(C)(C)c2cc(C(F)(F)F)cc(C(F)(F)F)c2)c(-c2ccccc2C)n1",
    "melting point": "124 to 125 °C"
  },
  {
    "COMPOUND": "CC(=O)S[C@@H](CCc1ccccc1C)C(=O)O",
    "melting point": "47 to 48 °C"
  },
  {
    "COMPOUND": "Cc1nc(-c2ccccc2)cc(-c2cccc(C#N)c2)c1NC(=O)CCN1CCOCC1",
    "melting point": "150 to 152 °C"
  },
  {
    "COMPOUND": "CS(=O)(=O)c1ccc(C[C@@H](N)[C@H](O)C(=O)C2(C(=O)O)CC2N)cc1 (stereo partly drawn)",
    "melting point": "256 to 258 °C"
  },
  {
    "COMPOUND": "CCCn1nc(C(C)C)c(C(=O)OCc2cccc(C(=O)c3ccccc3)c2)c1Cc1ccc(-c2ccccc2S(=O)(=O)NC(C)(C)C)c(F)c1",
    "melting point": "35 to 45 °C"
  },
  {
    "COMPOUND": "COC(=O)Nc1cccc(F)c1I",
    "melting point": "80 to 82 °C"
  },
  {
    "COMPOUND": "CCCCCCOc1nc(O)ns1",
    "melting point": "61 °C"
  },
  {
    "COMPOUND": "CN(C)CC1Cn2cc(C(=O)NCc3ccc(Cl)cc3)c(=O)c3cc(CN4CCOCC4)cc(c32)O1 (stereo not drawn)",
    "melting point": "168 to 170 °C"
  },
  {
    "COMPOUND": "O=c1c(Cc2cccnc2)cn2c3ccccc3c3cc(OCCCO)cc1c32",
    "melting point": "72.5 to 78.6 °C"
  },
  {
    "COMPOUND": "COC(=O)c1coc(-c2ccc(NS(=O)(=O)c3sc4ccc(Cl)cc4c3C)c(S(C)(=O)=O)c2)n1",
    "melting point": "237 to 239 °C"
  },
  {
    "COMPOUND": "Cc1ccc(S(=O)(=O)OCC2CCN(C(=O)c3cccc(C)c3)CC2)cc1",
    "melting point": "68 to 70 °C"
  },
  {
    "COMPOUND": "CCCCOC1CCC(=O)N1 (stereo not drawn)",
    "melting point": "36 to 38 °C"
  },
  {
    "COMPOUND": "CC(C)CCCC(C)C1CCC2C3=CCC4C(C)(C)C(OC(=O)c5ccccc5)CCC4(C)C3CCC21C (stereo not drawn)",
    "melting point": "160 to 161 °C"
  },
  {
    "COMPOUND": "CS(=O)(=O)c1ccc(C(=O)NCc2ccc3c(c2)C(=O)N(C2CCC(=O)NC2=O)C3=O)nc1 (stereo not drawn)",
    "melting point": "276 to 278 °C"
  },
  {
    "COMPOUND": "CC(O)=C1SC(=S)N(c2ccc(Cl)cc2)C1=O",
    "melting point": "200 to 205 °C"
  },
  {
    "COMPOUND": "CCn1nc2c(N)nc3ccccc3c2c1C",
    "melting point": "217 to 218 °C"
  }
]
